- TEST SUMMARY: gradient 5% acetonitrile 3 min, to 50% in 2 min, to 85% in 15 min, held 3 min, 100 µL/min
- EXPERIMENTAL CONDITIONS: column: Zorbax Extend-C18 2.1 x 50 mm; eluents: water / acetonitrile, 0.1% formic acid
Definition: the class of an entry is the range in low-valued: < 700 s; mid-valued: ≥ 700 s and < 900 s; high-valued: ≥ 900 s that contains its RP-LC retention time.

Example cases with answers are listed next.
MOLECULE	CATEGORY LABEL
CCOC(=O)c1c(C)[nH]c(C(=O)N2CCC(C(C)C(=O)NCc3ccc(C)cc3)CC2)c1C (centres undefined)	mid-valued
Cc1ccc(S(=O)(=O)Cc2noc(-c3ccc(Cl)cc3)n2)cc1	high-valued
CC1=C(c2cccc(Cl)c2)S(=O)(=O)N=C1N1CCCN(C(=O)c2ccncc2)CC1	low-valued
Cn1nccc1-c1cccc(-c2noc(CNS(=O)(=O)c3ccc(F)cc3)n2)c1	mid-valued
COc1cccc2cc(C(=O)Nc3nc(C)cs3)oc12	mid-valued

Form field 'band' for "C[C@@H](NC(=O)c1cccc(F)c1)C(=O)NCc1cscn1"
low-valued

Continue with "O=C(C1CCN(c2nc3ccc(-c4ccc(F)cc4)nc3s2)CC1)N1CCOCC1"
mid-valued

Would you kindly repeat that for "COc1ccc(-c2ncc3c(n2)CCN(S(=O)(=O)c2ccc4c(c2)CCC4)C3)cc1" ?
high-valued

How about this molecule: "Cc1scc2nc(C(=O)NCc3ccc(F)cc3)nc(N3CCCC3)c12"
low-valued

Another molecule to look at: "Cc1cc(NC(=O)CSc2ccc(NC(=O)c3cccc(F)c3)nn2)no1"
mid-valued

Try this molecule too: O=C(NCc1ccco1)C(=O)NCC1OCCN1C(=O)c1ccc2c(c1)OCO2 (centres undefined)
low-valued

Moving on to "CCc1ccc(CN(CC(=O)N2CCNCC2)C(=O)c2sccc2C)cc1"
low-valued

Let us now turn to COCC1(O)CCOC2(CCN(C(=O)C3CCCCC3)CC2)C1 (centres undefined)
low-valued

Next record, please: "COc1ccc(Cl)cc1NC(=O)NCC(=O)N1CCc2ccccc21"
high-valued

What would you report for "CCCOc1ccc(-c2csc(NC(=O)c3sc(C)nc3C)n2)cc1" ?
high-valued

Again, but for "COc1ccc(Cn2nccc2NC(=O)c2cc(=O)c3cc(Cl)ccc3o2)cc1"
mid-valued

Cool, now "CCOC(=O)c1nc(Nc2cc(C)c(Cl)cc2OC)c2ccccc2n1"
high-valued

Quick one: "COc1ccc(C(=O)N2CCC3(CC2)NC(=O)c2cc(Cl)ccc2N3C)cc1"
mid-valued

Try the molecule Cc1noc(C)c1C1CCCN1C(=O)NC(C)C (centres undefined)
low-valued

Same thing, different molecule: "Cc1ccc(S(=O)(=O)c2cnc(N3CCN(c4ccccc4Cl)CC3)nc2N)cc1C"
high-valued

What would you report for O=C(CN1CCCCC1c1nc(-c2cccc(F)c2)no1)NCc1cccs1 (centres undefined) ?
high-valued

What do we get for "CC(C)N1CCn2cc(S(=O)(=O)Nc3ccc(Cl)cc3F)cc2C1=O" ?
mid-valued
